- TARGET OR TEST SYSTEM: acetylcholine receptor
- PROCEDURE SUMMARY: SPR, receptor immobilized, peptide 10 uM
MEASURED PROPERTY: Binding affinity (RU)

>>> readout_number("RSYRKK [6mer-2-157]")
153
>>> readout_number("RRVYRR [6mer-2-179]")
121
>>> readout_number("KLFQKR [6mer-2-167]")
145
>>> readout_number("RWQQKK [6mer-2-181]")
139
>>> readout_number("KGQQRK [6mer-2-149]")
127
>>> readout_number("RLQLRR [6mer-2-183]")
154
>>> readout_number("KSQRKK [6mer-2-196]")
121
>>> readout_number("RGQYRR [6mer-2-197]")
126
